pKi: −log10 of the molar value.
Collected literature values of pKi measured for UniProtKB P03951.
MEASURED_METRIC: pKi

Here is how some molecules turned out for pKi.
MOLECULE: CCC(=O)Nc1cc(-c2ccc(C(N)=O)cc2C(=O)O)cc([C@@H]2C[C@](C)(c3ccccc3)c3cc(C(=N)N)ccc3N2)c1 (racemic)
DATA_VALUE: 9.16
--
MOLECULE: COC(=O)Nc1ccc(-c2cc([C@H](Cc3ccccc3)NC(=O)/C=C/c3cc(Cl)ccc3-n3cnnn3)nnc2Cl)cc1
DATA_VALUE: 8.02
--
MOLECULE: Cc1nc(-c2cccc(Cl)c2F)n(O)c1C(=O)N[C@@H](Cc1ccccc1)C(=O)Nc1ccc2[nH]c(C(=O)O)cc2c1
DATA_VALUE: 5.55
--
MOLECULE: NC[C@H]1CC[C@H](C(=O)N[C@@H](Cc2ccccc2)c2cc(-c3ccc4c(N)noc4c3)ccn2)CC1
DATA_VALUE: 8.42
--
MOLECULE: COC(=O)Nc1ccc2c(c1)N[C@@H](C(F)F)CCCC[C@H](NC(=O)/C=C/c1cc(Cl)ccc1-n1cnnn1)c1nc-2c[nH]1
DATA_VALUE: 6.54

(I) NC[C@H]1CC[C@H](C(=O)N[C@@H](Cc2ccccc2)c2cccc(-c3ccc4c(N)n[nH]c4c3)c2)CC1
(II) CC(C)NC(=O)c1ccc(-c2cccc([C@@H]3C[C@](C)(c4ccccc4)c4cc(C(=N)N)ccc4N3)c2)c(C(=O)O)c1 (racemic)
(III) COC(=O)Nc1ccc(-c2cnnc([C@H](Cc3ccccc3)NC(=O)/C=C/c3cc(Cl)ccc3-n3cnnn3)c2)cc1
(IV) COC(=O)Nc1ccc2c(c1)NC(=O)[C@H](C)CCC[C@H](N1CC[C@H](c3c(F)ccc(Cl)c3F)OC1=O)c1cc-2ccn1
Query block: List items by pKi in falling order. List the labels in the requested order.
Result block: IV, III, I, II
(IV: 9.22, III: 8.15, I: 7.68, II: 6.68)

(a) Cc1nc(-c2cccc(Cl)c2F)n(O)c1C(=O)N[C@@H](Cc1ccc(NC(=O)C2CCC2)cc1)C(=O)Nc1ccc2[nH]c(C(=O)O)cc2c1
(b) COC(=O)Nc1ccc(-c2cc([C@H](Cc3ccc(F)cc3)NC(=O)/C=C/c3cc(Cl)ccc3-n3cnnn3)nnc2Cl)cc1
(c) Cc1nc(-c2cccc(Cl)c2F)n(O)c1C(=O)N[C@@H](Cc1ccc(NC(=O)C2CC2)cc1)C(=O)Nc1ccc2[nH]c(C(=O)O)cc2c1
Query block: In this exercise, place the 3 molecules in ascending sequence of their recorded pKi. List the labels in the requested order.
Result block: c, a, b
